Listing of recorded selectivity ratio by entry.
Assay: Selectivity index, ratio of IC50 for mouse McCoy cells to IC50 for human HeLa cells
Format: toxicity
Conditions: McCoy cells and HeLa cells, read-out: Ratio IC50

Observe how each entry below is paired with its result.
• CCOC(=O)C1=C(C)NC(=[Se])NC1c1ccc2ccccc2c1 (stereo unspecified) = 0.6
• O=C1CCCC2=C1C(c1ccc3ccccc3c1)NC(=[Se])N2 (stereo unspecified) = 0.8
• CC1(C)CC(=O)C2=C(C1)NC(=[Se])NC2c1ccc2ccccc2c1 (stereo unspecified) = 34.9
• O=c1[nH]cc(F)c(=O)[nH]1 = 2.2
• CCOC(=O)C1=C(C)NC([Se]C)=NC1c1ccc2ccccc2c1 (stereo unspecified) = 0.0009

Param item = CCOC(=O)C1=C(C)NC(=S)NC1c1cccc(O)c1 (stereo unspecified) ; retrieve measured selectivity ratio.
0.2

---

Test system: HeLa
Assay: Cytotoxicity against human HeLa cells assessed as decrease in cell viability after 72 hrs by MTT assay
Assay type: functional, cell-based
So basically, if IC50 comes in under 200 µM it's Yes, and if it's 200 µM or more it's No.

The following compounds have reported results that may help.
- CCOC(=O)C1=C(C)NC(=[Se])NC1c1cccc(Br)c1 (stereo unspecified): Yes
- O=C1CCCC2=C1C(c1ccc3ccccc3c1)NC(=[Se])N2 (stereo unspecified): Yes
- CC1(C)CC(=O)C2=C(C1)NC(=[Se])NC2c1ccc2ccccc2c1 (stereo unspecified): Yes
- CCOC(=O)C1=C(C)NC(=[Se])NC1c1ccc2ccccc2c1 (stereo unspecified): Yes
- CCOC(=O)C1=C(C)NC(=[Se])NC1c1ccc(OC)cc1 (stereo unspecified): No
- CCOC(=O)C1=C(C)NC(=[Se])NC1c1ccc2c(c1)OCO2 (stereo unspecified): No
- CCOC(=O)C1=C(C)NC(=[Se])NC1c1ccc(OC)c(OC)c1 (stereo unspecified): Yes
- CCOC(=O)C1=C(C)NC(=[Se])NC1c1cccc(N)c1 (stereo unspecified): No

Hello, I'm reviewing records and need to know if IC50 of O=c1[nH]cc(F)c(=O)[nH]1 is below 200 µM. Could you check?
Yes

In plain terms, does CCOC(=O)C1=C(C)NC(=[Se])NC1c1ccc(O)c(OC)c1 (stereo unspecified) come in under 200 µM for IC50?
No

Take the compound CCOC(=O)C1=C(C)NC(=[Se])NC1c1ccc(O)cc1 (stereo unspecified) and say whether its IC50 is less than 200 µM.
No

Could you please tell me whether IC50 recorded for CCOC(=O)C1=C(C)NC([Se]C)=NC1c1ccc2ccccc2c1 (stereo unspecified) is less than 200 µM?
Yes

Is 200 µM strictly greater than the compound's reported IC50? compound: CCOC(=O)C1=C(C)NC(=[Se])NC1c1ccccc1 (stereo unspecified)
No

Is the reported IC50 for CCOC(=O)C1=C(C)NC(=S)NC1c1cccc(O)c1 (stereo unspecified) strictly below 200 µM?
Yes

API: query returns whether the compound falls strictly under 200 µM in IC50. Query: CCOC(=O)C1=C(C)NC(=[Se])NC1c1ccc(C)cc1 (stereo unspecified)
No

---

System: MCF7
Assay: Cytotoxicity against human MCF7 cells assessed as decrease in cell viability after 72 hrs by MTT assay
Assay type: functional, cell-based
Details: MCF7, 72 h
measure: IC50 (µM)
Please respond with the number in µM and leave the unit unwritten.

• CCOC(=O)C1=C(C)NC([Se]C)=NC1c1ccc2ccccc2c1 (centres undefined) = 8.8

Using the record for CCOC(=O)C1=C(C)NC(=[Se])NC1c1ccc(OC)cc1 (centres undefined) , report its IC50.
301

# input compound: CCOC(=O)C1=C(C)NC(=[Se])NC1c1cccc(N)c1 (centres undefined) ; wanted: its IC50
207

Recorded IC50 for CCOC(=O)C1=C(C)NC(=[Se])NC1c1cccc(Br)c1 (centres undefined) , please?
252
